system: CCRF-CEM leukemia; assay: NCI-60 one-dose screen, 48 h (100 = growth as untreated, 0 = no growth, -100 = all killed); conditions: 10 µM unless noted
Compounds without any hit were thinned out: in the full panel of roughly 83,000, 20% have a hit.
The entries below come with measured growth values attached.
State the answer as a number, implicitly in %.

Please review the following examples before continuing.
- smilesEntry: "CC(C)(C)c1ccc(NS(=O)(=O)c2ccc3nc(NC(=O)c4cnccn4)[nH]c3c2)cc1"
  growth (%): 7.84
- smilesEntry: "O=C(Cc1ccc(/C=C/C(=O)c2ncc[nH]2)cc1)Nc1ccc(Cl)cc1"
  growth (%): -6.35
- smilesEntry: "O=C(Nc1cccc(C2=NCCN2)c1)c1ccc(-c2ccc(C(=O)Nc3cccc(C4=NCCN4)c3)cc2)cc1"
  growth (%): 89.1
- smilesEntry: "COc1cccc(-c2cc(C(=O)Nc3ccc(/C=C/c4ccc(OC5CCN(C)CC5)cc4)cc3)ccc2OC)c1"
  growth (%): -10.8
- smilesEntry: "COc1cc2nc(-c3ccc(Cl)cc3)cc(OCCCN3CCC(O)CC3)c2cc1OC"
  growth (%): 57.5
- smilesEntry: "COc1cc2cc(Oc3cccc(NC(=O)Nc4cc(C(F)(F)F)cc(C(F)(F)F)c4)c3)c(C)nc2cc1OC"
  growth (%): 0.186
- smilesEntry: "CCCCCN1C=C/C(=C\\C(=O)N(C)c2ccccc2Br)c2ccccc21"
  growth (%): 96

[in] GET /values?readout=growth&item= CN[C@@H](C)C(=O)N[C@H]1CCS[C@H]2CC(C)(C)[C@@H](C(=O)N[C@H]3c4ccccc4C[C@H]3OCC#CC#CCO[C@@H]3Cc4ccccc4[C@@H]3NC(=O)[C@H]3N4C(=O)[C@@H](NC(=O)[C@H](C)NC)CCS[C@H]4CC3(C)C)N2C1=O
[out] 25.1

---

tested on: CAKI-1 renal; experiment: NCI-60 one-dose screen, 48 h (100 = growth as untreated, 0 = no growth, -100 = all killed); conditions: 10 µM unless noted
Compounds without any hit were thinned out: in the full panel of roughly 83,000, 20% have a hit.
valueKind: growth (%)
Give the quantity in %, number only.

- compound: "Nc1nc(Nc2ccccc2SSc2ccccc2Nc2nc(N)nc(-c3cccs3)n2)nc(-c2ccsc2)n1"
  growth [%]: 20
- compound: "CCNc1nc2ccc(Nc3ccnc4cc(Cl)ccc34)cc2[nH]1"
  growth [%]: 98.9
- compound: "O=C(Cn1c(C(=O)c2ccccc2)nc2ccccc21)c1ccc(F)cc1"
  growth [%]: 42.6
- compound: "Cn1cc(-c2nc(-c3c[nH]c4c(Cl)nccc34)cs2)c2cc(F)ccc21"
  growth [%]: 99.2
- compound: "S=c1cc(S)c2cc(Br)ccc2[nH]1"
  growth [%]: 101

--- query ---
[in] Data request, read-out growth, for CCCCCN1C=C/C(=C\C(=O)N(C)c2ccccc2Br)c2ccccc21
[out] 82.2

---

system: RPMI-8226 leukemia; assay: NCI-60 one-dose screen, 48 h (100 = growth as untreated, 0 = no growth, -100 = all killed); conditions: 10 µM unless noted
Compounds without any hit were thinned out: in the full panel of roughly 83,000, 20% have a hit.
Recorded growth split into classes LOW (below 20%), MEDIUM (20% to below 70%), HIGH (70% or more)

- compound: "COc1ccc(-c2cnc3c(-c4cccc5cnccc45)cnn3c2)cc1"
  classAssignment: "MEDIUM"
- compound: "O=C(Nc1ccc(F)cc1)Nc1ccc(NC(=O)c2cc(Cl)nc3ccccc23)cc1"
  classAssignment: "MEDIUM"
- compound: "Cn1c2ccccc2c2c3c(c4c5ccccc5n(C)c4c21)C(=O)OC3"
  classAssignment: "HIGH"

[in] Form field 'band' for Nc1c(C(=O)Nc2cccc3cnccc23)sc2nc3c(cc12)CN(Cc1ccccc1)CC3
[out] HIGH

[in] // query: CCOc1cccc(-c2nc(N)nc(Nc3ccccc3SSc3ccccc3Nc3nc(N)nc(-c4cccc(OCC)c4)n3)n2)c1
[out] MEDIUM

[in] How about COC(=O)c1ccc2c(c1)[n+](=O)c(C(C)=O)c(C(F)(F)F)n2[O-] ?
[out] LOW
